Test system: Cryptococcus neoformans
assayNotes: Antimicrobial activity against Cryptococcus neoformans after 72 hrs by NCCLS method
Type: functional
Measured MIC80 by item

- smilesRecord: "CCCCCCn1cnc2ccc(C)cc2c1=O"
  val: "> 64 µg/mL"

# input Check the records and state MIC80 for CCCCCCN1CCc2c(c3cc(F)ccc3n2C)C1
# output > 64 µg/mL

# input Check the records and state MIC80 for CCCCCCNCc1nc2ccccc2[nH]1
# output > 64 µg/mL

# input Check the records and state MIC80 for CCCCCCCN1CCc2c(c3cc(C)ccc3n2C)C1
# output > 64 µg/mL

---

Tested on: Cryptococcus neoformans
assayNotes: Antimicrobial activity against Cryptococcus neoformans after 72 hrs by NCCLS method
Assay type: functional
Measured MIC80 by item

For orientation, consider the following solved cases.
- smilesRecord: "CCCCCCCCNCc1nc2ccccc2s1"
  measuredParameter: "MIC80"
  val: "16 µg/mL"
- smilesRecord: "CCCCCCCNCc1nc2ccccc2o1"
  measuredParameter: "MIC80"
  val: "16 µg/mL"
- smilesRecord: "CCCCCCCCN1CCc2c(c3cc(I)ccc3n2C)C1"
  measuredParameter: "MIC80"
  val: "> 64 µg/mL"
- smilesRecord: "CCCCCCCNCc1nc2ccccc2s1"
  measuredParameter: "MIC80"
  val: "64 µg/mL"
- smilesRecord: "CCCCCCCn1cnc2ccc(C)cc2c1=O"
  measuredParameter: "MIC80"
  val: "> 64 µg/mL"
- smilesRecord: "CCCCCCCN1CCc2c(c3cc(F)ccc3n2C)C1"
  measuredParameter: "MIC80"
  val: "> 64 µg/mL"

# input Check the records and state MIC80 for OC(Cn1cncn1)(Cn1cncn1)c1ccc(F)cc1F
# output 1 µg/mL

# input Check the records and state MIC80 for CCCCCCNCc1nc2ccccc2s1
# output 64 µg/mL

# input Check the records and state MIC80 for CCCCCCNCc1nc2ccccc2o1
# output 64 µg/mL

# input Check the records and state MIC80 for CCCCCCN1CCc2c(c3cc(I)ccc3n2C)C1
# output > 64 µg/mL

# input Check the records and state MIC80 for CCCCCCCN1CCc2c(c3cc(Cl)ccc3n2C)C1
# output > 64 µg/mL

# input Check the records and state MIC80 for CCCCCCN1CCc2c(c3cc(Br)ccc3n2C)C1
# output > 64 µg/mL

# input Check the records and state MIC80 for CCCCCCCN1CCc2c(c3cc(Br)ccc3n2C)C1
# output 64 µg/mL

# input Check the records and state MIC80 for CCCCCCCCN1CCc2c(c3cc(Cl)ccc3n2C)C1
# output > 64 µg/mL

# input Check the records and state MIC80 for CCCCCCCN1CCc2c(c3cc(I)ccc3n2C)C1
# output > 64 µg/mL
